Below, each entry is listed with its recorded % activity.
measured target: Met(Y1248C) (h) (Homo sapiens, UniProt P08581, Y1230C)
procedure details: Kinase Profiling Assay
Assay type: biochemical
experimental setup: 100 μM
Please give a number only; it is taken to be in %.

Example results:
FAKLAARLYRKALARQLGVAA [MMI-0300]: 84
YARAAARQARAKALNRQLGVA (Mammalian) [MMI-0200]: 141
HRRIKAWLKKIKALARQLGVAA (Mammalian) [MMI-0500]: 73

Then there is this sequence:
Data request, read-out % activity, for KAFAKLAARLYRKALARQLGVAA [MMI-0400]
36
